assay: photoluminescence quantum yield (fraction); solvent given as SMILES; conditions: in CC#N
Strictly below 0.2 in photoluminescence quantum yield: MET. Otherwise: NOT MET.

{"columns": ["test.smiles", "category.label"],
 "data": [
  ["N#Cc1nn(-c2ccc(F)cc2)nc1N1CCCC1", "NOT MET"],
  ["Cc1nc2c(c[n+]1C)CN1C(=O)N([C@H]3O[C@@H](CO)[C@H](O)[C@@H]3O)C=CC1=N2", "NOT MET"],
  ["CC(=O)Nc1ccc(O)cc1", "MET"],
  ["Cc1cc2nc3c(=O)[nH]c(=O)n(C)c3nc2cc1C", "MET"],
  ["CCC1=C(C)C2=C(c3cc(C(=O)Cl)cc(C(=O)Cl)c3)c3c(C)c(CC)c(C)n3[B-](F)(F)[N+]2=C1C", "NOT MET"]
]}
